experiment: Selectivity index, ratio of IC50 for mouse L929 cells to IC50 for human A549 cells; assay type: toxicity; conditions: L929 cells versus A549 cells, read-out: Ratio IC50
Entries and their selectivity ratio

COMPOUND	selectivity ratio
COc1cc2c(c(OC)c1OC)-c1ccc(OC)c(=O)cc1[C@@H](NC(C)=O)CC2 [COLCHICINE]	7.4

Given `COc1cc(C(=O)c2nc(-c3ccc(C)cc3)n[nH]2)cc(OC)c1OC` , state its recorded selectivity ratio. 39.8

---

test system: L929; test: Antiproliferative activity against mouse L929 cells after 72 hrs by MTT assay; assay type: cell-based; conditions: L929, 72 h
ASSAY_METRIC: IC50 (nM)
Numeric answer only, unit nM assumed.

Completed entries (count: 2):
SUBSTANCE_SMILES	IC50 (nM)
COc1cc(C(=O)c2nc(-c3ccc(C)cc3)n[nH]2)cc(OC)c1OC	42600
COc1cc2c(c(OC)c1OC)-c1ccc(OC)c(=O)cc1[C@@H](NC(C)=O)CC2	1010

Given `COc1ccc(/C=C\c2cc(OC)c(OC)c(OC)c2)cc1O` , state its recorded IC50. 820
